- subject.of.test: hTRPV1 (Homo sapiens, UniProt Q8NER1)
- assay.summary: Patch clamp selectivity, hTRPV1
- assay.setup: 500 nanomolar Capsaicin, Inward (−80 mV)
pIC50: −log10 of the molar value.
readout.kind: pIC50

Input: Consider the compound C[C@H]1CCCN1c1ncc(-c2cccc(NC(=O)Cn3cnc4c3c(=O)n(C)c(=O)n4C)n2)cn1 and give its measured pIC50.
Output: < 5.00

###

- subject.of.test: rTRPA1 (Rattus norvegicus, UniProt Q6RI86)
- Sequence (Q6RI86 whole entry): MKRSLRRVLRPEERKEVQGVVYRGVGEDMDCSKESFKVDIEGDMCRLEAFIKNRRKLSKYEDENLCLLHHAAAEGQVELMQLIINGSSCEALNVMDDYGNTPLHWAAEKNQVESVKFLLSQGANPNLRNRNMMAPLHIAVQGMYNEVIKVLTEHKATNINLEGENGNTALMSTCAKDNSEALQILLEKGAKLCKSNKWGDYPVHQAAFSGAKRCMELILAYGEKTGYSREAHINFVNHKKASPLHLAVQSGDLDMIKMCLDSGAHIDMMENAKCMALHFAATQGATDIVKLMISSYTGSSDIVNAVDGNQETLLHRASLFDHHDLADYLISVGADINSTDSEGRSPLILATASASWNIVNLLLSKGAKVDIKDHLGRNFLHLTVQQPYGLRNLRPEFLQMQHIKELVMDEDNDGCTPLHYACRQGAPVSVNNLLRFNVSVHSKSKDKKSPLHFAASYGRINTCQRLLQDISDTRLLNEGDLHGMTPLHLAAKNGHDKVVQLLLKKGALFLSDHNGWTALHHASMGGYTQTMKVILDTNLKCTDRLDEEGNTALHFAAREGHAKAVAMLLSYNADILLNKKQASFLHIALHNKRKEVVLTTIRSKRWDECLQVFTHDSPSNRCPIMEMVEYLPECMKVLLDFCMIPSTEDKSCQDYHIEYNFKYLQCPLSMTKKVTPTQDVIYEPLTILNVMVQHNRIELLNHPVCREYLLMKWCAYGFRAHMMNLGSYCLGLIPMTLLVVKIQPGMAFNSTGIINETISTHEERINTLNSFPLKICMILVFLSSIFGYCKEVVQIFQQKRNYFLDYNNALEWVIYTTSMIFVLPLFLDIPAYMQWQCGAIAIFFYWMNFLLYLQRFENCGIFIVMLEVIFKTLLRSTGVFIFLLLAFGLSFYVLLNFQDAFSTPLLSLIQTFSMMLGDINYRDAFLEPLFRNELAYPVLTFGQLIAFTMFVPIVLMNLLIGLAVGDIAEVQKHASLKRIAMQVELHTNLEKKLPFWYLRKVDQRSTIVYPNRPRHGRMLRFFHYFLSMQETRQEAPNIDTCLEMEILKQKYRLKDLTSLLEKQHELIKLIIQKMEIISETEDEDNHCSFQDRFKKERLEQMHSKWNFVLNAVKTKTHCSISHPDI
- assay.summary: Whole-cell patch clamp block of inward current through rTRPA1
- Format: cell-based
- assay.setup: class symbol; read-out: Potency (IC50) Rat
readout.kind: IC50

{"compound": "C[C@H]1CCCN1c1ncc(-c2cccc(NC(=O)Cn3cnc4c3c(=O)n(C)c(=O)n4C)n2)cn1", "IC50": "≥ 100 nM"}

Note: attention shifts to another entry.
Input: Consider the compound C[C@H]1CCCN1c1ccc(-c2csc(NC(=O)Cn3cnc4c3c(=O)n(C)c(=O)n4C)n2)cc1F [Formula (III), reference compound] and give its measured IC50.
Output: 50 to 100 nM

###

- subject.of.test: UniProtKB Q12809
- Sequence (Q12809 whole entry): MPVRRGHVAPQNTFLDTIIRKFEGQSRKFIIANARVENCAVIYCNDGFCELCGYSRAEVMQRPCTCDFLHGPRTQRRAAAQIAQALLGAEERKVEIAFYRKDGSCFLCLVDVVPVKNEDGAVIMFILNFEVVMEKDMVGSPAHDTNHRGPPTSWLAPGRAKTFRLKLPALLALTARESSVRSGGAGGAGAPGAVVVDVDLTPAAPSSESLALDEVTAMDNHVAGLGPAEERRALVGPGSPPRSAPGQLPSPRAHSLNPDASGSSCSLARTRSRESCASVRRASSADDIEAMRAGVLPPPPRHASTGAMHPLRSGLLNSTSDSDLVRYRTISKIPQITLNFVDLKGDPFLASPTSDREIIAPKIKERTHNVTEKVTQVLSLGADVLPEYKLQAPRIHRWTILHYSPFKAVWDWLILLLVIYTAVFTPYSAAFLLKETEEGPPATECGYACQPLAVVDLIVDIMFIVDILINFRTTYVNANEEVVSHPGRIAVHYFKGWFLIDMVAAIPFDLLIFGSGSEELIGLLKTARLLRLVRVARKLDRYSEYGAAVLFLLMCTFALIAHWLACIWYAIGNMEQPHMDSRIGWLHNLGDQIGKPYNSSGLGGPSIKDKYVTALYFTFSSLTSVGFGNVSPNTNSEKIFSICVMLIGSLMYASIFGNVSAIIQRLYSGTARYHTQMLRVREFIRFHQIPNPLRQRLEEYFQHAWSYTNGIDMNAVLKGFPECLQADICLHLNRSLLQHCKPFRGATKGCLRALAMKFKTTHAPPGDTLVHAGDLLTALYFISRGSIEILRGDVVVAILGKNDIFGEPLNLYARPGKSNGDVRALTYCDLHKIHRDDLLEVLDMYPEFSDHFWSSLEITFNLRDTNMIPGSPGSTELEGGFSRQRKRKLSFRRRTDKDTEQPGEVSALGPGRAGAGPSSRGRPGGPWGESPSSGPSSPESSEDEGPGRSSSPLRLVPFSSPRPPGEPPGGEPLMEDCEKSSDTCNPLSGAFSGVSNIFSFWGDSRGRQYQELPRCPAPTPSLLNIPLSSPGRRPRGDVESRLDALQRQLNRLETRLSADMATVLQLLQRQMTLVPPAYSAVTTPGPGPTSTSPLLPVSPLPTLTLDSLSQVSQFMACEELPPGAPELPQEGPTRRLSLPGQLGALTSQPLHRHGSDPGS
- assay.summary: Patch clamp selectivity, hERG
- Assay type: cell-based
- assay.setup: human, pH 7.4, read-out: Fold Selectivity Compared to TRPA1
readout.kind: selectivity ratio

Input: Consider the compound C[C@H]1CCCN1c1ncc(-c2cccc(NC(=O)Cn3cnc4c3c(=O)n(C)c(=O)n4C)n2)cn1 and give its measured selectivity ratio.
Output: > 100

###

- subject.of.test: hTRPA1 (Homo sapiens)
- Sequence (O75762 whole entry): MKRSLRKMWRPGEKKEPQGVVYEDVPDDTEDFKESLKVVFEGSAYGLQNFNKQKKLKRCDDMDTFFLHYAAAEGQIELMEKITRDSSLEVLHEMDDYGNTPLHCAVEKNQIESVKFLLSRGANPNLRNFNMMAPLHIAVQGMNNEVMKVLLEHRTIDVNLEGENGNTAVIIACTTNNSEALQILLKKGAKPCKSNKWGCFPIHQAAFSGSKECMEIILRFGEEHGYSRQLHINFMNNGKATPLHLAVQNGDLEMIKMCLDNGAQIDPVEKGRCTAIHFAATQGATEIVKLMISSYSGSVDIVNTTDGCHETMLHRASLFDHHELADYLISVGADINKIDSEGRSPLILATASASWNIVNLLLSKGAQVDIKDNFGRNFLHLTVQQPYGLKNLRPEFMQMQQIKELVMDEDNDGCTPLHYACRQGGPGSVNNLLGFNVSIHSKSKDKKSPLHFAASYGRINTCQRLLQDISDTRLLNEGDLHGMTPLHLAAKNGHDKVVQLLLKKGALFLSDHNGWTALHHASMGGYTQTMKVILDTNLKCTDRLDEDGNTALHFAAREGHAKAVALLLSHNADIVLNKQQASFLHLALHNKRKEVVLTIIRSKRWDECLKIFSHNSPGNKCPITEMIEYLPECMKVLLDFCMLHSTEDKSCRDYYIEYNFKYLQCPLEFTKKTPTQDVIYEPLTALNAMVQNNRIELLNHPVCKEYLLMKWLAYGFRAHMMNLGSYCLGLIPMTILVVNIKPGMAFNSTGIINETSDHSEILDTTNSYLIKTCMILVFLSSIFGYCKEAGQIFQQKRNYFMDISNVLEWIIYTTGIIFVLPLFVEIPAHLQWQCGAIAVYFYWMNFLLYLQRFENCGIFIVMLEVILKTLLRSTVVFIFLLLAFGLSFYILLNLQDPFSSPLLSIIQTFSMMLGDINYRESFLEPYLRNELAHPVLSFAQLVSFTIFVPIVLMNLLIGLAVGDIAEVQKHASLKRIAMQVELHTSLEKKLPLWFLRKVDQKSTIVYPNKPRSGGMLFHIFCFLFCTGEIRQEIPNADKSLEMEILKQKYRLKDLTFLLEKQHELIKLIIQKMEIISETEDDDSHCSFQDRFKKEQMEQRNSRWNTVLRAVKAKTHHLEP
- assay.summary: hTrpA1 IC50 measured in 1% RSA (rat serum albumin)
- Format: cell-based
readout.kind: pIC50
Reminder that pIC50 is minus the log10 of a molar concentration.

{"structure.smiles": "C[C@H]1CCCN1c1ncc(-c2cccc(NC(=O)Cn3cnc4c3c(=O)n(C)c(=O)n4C)n2)cn1", "pIC50": 5.28}

Note: attention shifts to another entry.
Input: Consider the compound C[C@@H]1CCCN1c1ncc(-c2cccc(NC(=O)Cn3cnc4c3c(=O)n(C)c(=O)n4C)n2)cn1 and give its measured pIC50.
Output: 4.82

###

- subject.of.test: UniProt:O75762
- assay.summary: Whole-cell patch clamp block of inward current through hTRPA1
- Type: cell-based
- assay.setup: hTRPA1, Human; current activation 10 micromolar AITC; whole cell patch; read-out: IC50 Inward current
readout.kind: IC50 (nM)
Express it in nM; write the number only.

Input: Consider the compound C[C@@H]1CCCN1c1ncc(-c2cccc(NC(=O)Cn3cnc4c3c(=O)n(C)c(=O)n4C)n2)cn1 and give its measured IC50.
Output: 77

Input: Consider the compound C[C@H]1CCCN1c1ncc(-c2cccc(NC(=O)Cn3cnc4c3c(=O)n(C)c(=O)n4C)n2)cn1 and give its measured IC50.
Output: 93

###

- subject.of.test: UniProtKB A0A8I3Q1Q7
- Sequence (A0A8I3Q1Q7 1-1118): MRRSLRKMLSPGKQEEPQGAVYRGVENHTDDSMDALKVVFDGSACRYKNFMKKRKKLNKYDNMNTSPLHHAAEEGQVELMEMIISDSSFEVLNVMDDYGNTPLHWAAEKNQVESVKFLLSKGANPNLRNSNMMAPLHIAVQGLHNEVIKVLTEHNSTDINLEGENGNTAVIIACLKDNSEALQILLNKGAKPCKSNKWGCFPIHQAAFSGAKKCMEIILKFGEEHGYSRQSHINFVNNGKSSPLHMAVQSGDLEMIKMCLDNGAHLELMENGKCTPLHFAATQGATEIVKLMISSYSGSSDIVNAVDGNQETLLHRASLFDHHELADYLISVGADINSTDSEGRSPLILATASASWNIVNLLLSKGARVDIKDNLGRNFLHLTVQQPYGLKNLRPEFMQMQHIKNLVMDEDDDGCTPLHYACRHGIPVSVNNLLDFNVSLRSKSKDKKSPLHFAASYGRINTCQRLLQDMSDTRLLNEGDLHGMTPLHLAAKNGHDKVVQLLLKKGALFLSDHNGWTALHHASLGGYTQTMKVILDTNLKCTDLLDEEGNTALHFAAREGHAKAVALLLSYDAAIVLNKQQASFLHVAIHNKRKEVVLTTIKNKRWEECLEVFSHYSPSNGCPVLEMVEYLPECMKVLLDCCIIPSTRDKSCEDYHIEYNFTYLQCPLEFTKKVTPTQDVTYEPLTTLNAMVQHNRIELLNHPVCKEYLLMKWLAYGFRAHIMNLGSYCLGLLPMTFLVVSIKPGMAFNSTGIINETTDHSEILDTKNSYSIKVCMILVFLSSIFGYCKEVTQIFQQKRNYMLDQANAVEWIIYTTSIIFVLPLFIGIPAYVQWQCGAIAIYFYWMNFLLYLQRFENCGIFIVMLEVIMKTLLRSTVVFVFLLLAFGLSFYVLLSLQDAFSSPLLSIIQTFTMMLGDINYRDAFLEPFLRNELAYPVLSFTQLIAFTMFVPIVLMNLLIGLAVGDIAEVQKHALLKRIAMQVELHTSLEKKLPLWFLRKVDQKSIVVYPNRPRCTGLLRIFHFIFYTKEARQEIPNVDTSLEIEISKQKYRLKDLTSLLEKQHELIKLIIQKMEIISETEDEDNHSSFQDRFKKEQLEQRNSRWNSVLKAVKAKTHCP
- assay.summary: Whole-cell patch clamp block of inward current through dTRPA1
- Format: cell-based, Dog
- assay.setup: class symbol; read-out: Potency (IC50) Dog
readout.kind: IC50

{"compound": "C[C@H]1CCCN1c1ccc(-c2csc(NC(=O)Cn3cnc4c3c(=O)n(C)c(=O)n4C)n2)cc1F [Formula (III), reference compound]", "recorded.value": "< 25 nM"}

Input: Consider the compound C[C@H]1CCCN1c1ncc(-c2cccc(NC(=O)Cn3cnc4c3c(=O)n(C)c(=O)n4C)n2)cn1 and give its measured IC50.
Output: ≥ 100 nM

Where do these numbers come from? They come from patent US20140158116A1.
